system: Human immunodeficiency virus 1; assay: Antiviral activity against HIV1 3B harboring reverse transcriptase K103N/Y181C double mutant infected in human MT2 cells assessed as protection against viral infection by MTT assay; assay type: functional, organism-based; settings: Human immunodeficiency virus 1, 3B, MT2; read-out: EC50
Quantity: EC50 (nM)
Give bare numbers, in nM.

> print(dat)
                        structure.as.smiles  data.value
1  N#Cc1ccc(Nc2nccc(Nc3ccc4cc(C#N)ccc4c3)n2)cc1         520
2  Cc1cn2cc(C#N)cc2c(C)c1Nc1ccnc(Nc2ccc(C#N)cc2)n1          39
3  Cc1cc2cc(C#N)ccc2c(C)c1Nc1ccnc(Nc2ccc(C#N)cc2)n1         6.9
4  N#Cc1ccc(Nc2nccc(Nc3ccc4cc(C#N)ccc4c3F)n2)cc1         790
5  N#Cc1ccc(Nc2ncnc(Nc3c(F)cc4cc(C#N)ccc4c3F)n2)cc1          65
6  N#Cc1ccc(Nc2nccc(Nc3c(F)cc4cc(C#N)ccc4c3F)n2)cc1          50
7  Cc1cc2cc(C#N)ccc2c(C)c1Nc1ncnc(Nc2ccc(C#N)cc2)n1           7
8  Cc1cc2cc(C#N)ccc2c(C)c1Nc1nc(Nc2ccc(C#N)cc2)nc(OCCCN2CCOCC2)n1          16

Answer for every listed entry: what is its EC50? The entries follow.
1. N#Cc1ccc(Nc2ncnc(Nc3c(F)cn4cc(C#N)cc4c3F)n2)cc1
2. N#Cc1ccc(Nc2nccc(Nc3cc4cc(C#N)cn4cc3F)n2)cc1

Reply:
1: 2200; 2: 4600

###

tested on: MT2; assay: Cytotoxicity against human MT2 cells assessed as growth inhibition by MTT assay; format: cell-based
Quantity: log10 of CC50 (log10 of the value in µM)
A difference of one corresponds to tenfold CC50; all values are log10 with CC50 in µM.

Known results for compounds:
> print(dat)
                        structure.as.smiles  data.value
1  N#Cc1ccc(Nc2nccc(Nc3c(F)cn4cc(C#N)cc4c3F)n2)cc1        0.00
2  N#Cc1ccc(Nc2nc(Nc3ccc4cc(C#N)ccc4c3)nc(OCCCN3CCOCC3)n2)cc1        0.08
3  Cc1cc2cc(C#N)ccc2c(C)c1Nc1nc(Nc2ccc(C#N)cc2)nc(OCCCN2CCOCC2)n1        1.23

# batch: return log10 of CC50 for each of the 8 compounds below
1. N#Cc1ccc(Nc2nc(Nc3ccc4cc(C#N)ccc4c3F)nc(OCCCN3CCOCC3)n2)cc1
2. Cc1cn2cc(C#N)cc2c(C)c1Nc1nc(Cl)nc(Nc2ccc(C#N)cc2)n1
3. Cc1cn2cc(C#N)cc2cc1Nc1ccnc(Nc2ccc(C#N)cc2)n1
4. Cc1cc2cc(C#N)ccc2c(C)c1Nc1ccnc(Nc2ccc(C#N)cc2)n1
5. N#Cc1ccc(Nc2nccc(Nc3ccc4cc(C#N)ccc4c3F)n2)cc1
6. N#Cc1ccc(Nc2nccc(Nc3cc4cc(C#N)cn4cc3F)n2)cc1
7. Cc1c(Nc2nc(Nc3ccc(C#N)cc3)nc(OCCCN3CCOCC3)n2)ccc2cc(C#N)ccc12
8. Cc1cn2cc(C#N)cc2c(C)c1Nc1ccnc(Nc2ccc(C#N)cc2)n1

Reply:
1. 0.58
2. 1.58
3. 1.86
4. 0.89
5. 1.65
6. 1.88
7. 0.77
8. 1.00

###

tested on: Human immunodeficiency virus 1; assay: Antiviral activity against wild type HIV1 3B infected in human MT2 cells assessed as protection against viral infection by MTT assay; format: functional, organism-based; settings: Human immunodeficiency virus 1, 3B
Answer each item with its documented pEC50.
One number for each entry, as −log10 of the molar value.

Consider the reported pEC50 for these molecules:
> print(dat)
                        structure.as.smiles  quantity  data.value
1  Cc1cc2cc(C#N)ccc2c(C)c1Nc1nc(Nc2ccc(C#N)cc2)nc(OCCCN2CCOCC2)n1     pEC50        7.77
2  Cc1cn2cc(C#N)cc2c(C)c1Nc1ccnc(Nc2ccc(C#N)cc2)n1     pEC50        9.00
3  N#Cc1ccc(Nc2nccc(Nc3c(F)cn4cc(C#N)cc4c3F)n2)cc1     pEC50        8.85
4  Cc1c(Nc2nc(Nc3ccc(C#N)cc3)nc(OCCCN3CCOCC3)n2)ccc2cc(C#N)ccc12     pEC50        7.68
5  N#Cc1ccc(Nc2ncnc(Nc3c(F)cn4cc(C#N)cc4c3F)n2)cc1     pEC50        8.57

Please state pEC50 for every molecule in the list that follows.
1. N#Cc1ccc(Nc2nccc(Nc3ccc4cc(C#N)ccc4c3F)n2)cc1
2. N#Cc1ccc(Nc2nccc(Nc3cc4cc(C#N)cn4cc3F)n2)cc1
3. N#Cc1ccc(Nc2ncnc(Nc3c(F)cc4cc(C#N)ccc4c3F)n2)cc1
4. N#Cc1ccc(Nc2nccc(Nc3ccc4cc(C#N)ccc4c3)n2)cc1
5. Cc1cn2cc(C#N)cc2c(C)c1Nc1ncnc(Nc2ccc(C#N)cc2)n1

Reply:
8.22
6.70
8.92
7.62
9.28

###

test system: Human immunodeficiency virus 1; assay: Antiviral activity against wild type HIV1 3B infected in human MT2 cells assessed as protection against viral infection by MTT assay; assay type: functional, organism-based; conditions: Human immunodeficiency virus 1, 3B
Recorded EC50 determines the label; the label ranges are lower level (below 2 nM), middle level (2 nM to below 100 nM), upper level (100 nM or more)

> print(dat)
                        structure.as.smiles  classification
1  N#Cc1ccc(Nc2nc(Nc3ccc4cc(C#N)ccc4c3)nc(OCCCN3CCOCC3)n2)cc1     upper level
2  Cc1cc2cc(C#N)ccc2c(C)c1Nc1ncnc(Nc2ccc(C#N)cc2)n1     lower level

Task item: Entry N#Cc1ccc(Nc2nccc(Nc3ccn4cc(C#N)cc4c3)n2)cc1 belongs to which category?
Reply: upper level

Task item: Entry N#Cc1ccc(Nc2nc(Nc3ccc4cc(C#N)ccc4c3F)nc(OCCCN3CCOCC3)n2)cc1 belongs to which category?
Reply: middle level

Task item: Lab note: sort Cc1c(Nc2ccnc(Nc3ccc(C#N)cc3)n2)ccc2cc(C#N)ccc12 into the matching EC50 band.
Reply: middle level

Task item: Tag the class for Cc1c(Nc2ccnc(Nc3ccc(C#N)cc3)n2)ccn2cc(C#N)cc12
Reply: lower level

Task item: Any idea which band Cc1cc2cc(C#N)ccc2c(C)c1Nc1nc(Cl)nc(Nc2ccc(C#N)cc2)n1 is in?
Reply: middle level

Task item: Lab log: Cc1cn2cc(C#N)cc2cc1Nc1ccnc(Nc2ccc(C#N)cc2)n1 — assign EC50 category
Reply: middle level

Task item: Sort into band: Cc1c(Nc2nc(Nc3ccc(C#N)cc3)nc(OCCCN3CCOCC3)n2)ccn2cc(C#N)cc12
Reply: upper level

Task item: Lab note: which band did Cc1cc2cc(C#N)ccc2c(C)c1Nc1ccnc(Nc2ccc(C#N)cc2)n1 land in?
Reply: middle level

Task item: Which class is correct for the following compound? Cc1cn2cc(C#N)cc2c(C)c1Nc1nc(Cl)nc(Nc2ccc(C#N)cc2)n1
Reply: upper level

Task item: Which class is correct for the following compound? N#Cc1ccc(Nc2nccc(Nc3c(F)cc4cc(C#N)ccc4c3F)n2)cc1
Reply: lower level

###

tested on: Human immunodeficiency virus 1; assay: Antiviral activity against HIV1 3B harboring reverse transcriptase K103N/Y181C double mutant infected in human MT2 cells assessed as protection against viral infection by MTT assay; assay type: functional, organism-based; conditions: Human immunodeficiency virus 1, 3B, MT2; read-out: EC50
pEC50: −log10 of the molar value.
I would appreciate it if you labelled entries YES when pEC50 is 7 or higher, otherwise NO.

Consider the following illustrative entries.
> print(dat)
                        structure.as.smiles  classification
1  N#Cc1ccc(Nc2nc(Nc3ccc4cc(C#N)ccc4c3F)nc(OCCCN3CCOCC3)n2)cc1              NO
2  Cc1c(Nc2ccnc(Nc3ccc(C#N)cc3)n2)ccn2cc(C#N)cc12              NO
3  Cc1cn2cc(C#N)cc2cc1Nc1ccnc(Nc2ccc(C#N)cc2)n1              NO

Would you kindly look at the next entry?
Task item: Has Cc1cn2cc(C#N)cc2c(C)c1Nc1ncnc(Nc2ccc(C#N)cc2)n1 a recorded pEC50 greater than or equal to 7?
Reply: YES

###

system: MT2; assay: Cytotoxicity against human MT2 cells assessed as growth inhibition by MTT assay; format: cell-based
Kindly state CC50 for each of the entries shown.
One number for each entry, in µM.

Worked cases, answers included:
> print(dat)
                        structure.as.smiles  quantity  readout.units  data.value
1  N#Cc1ccc(Nc2ncnc(Nc3c(F)cn4cc(C#N)cc4c3F)n2)cc1      CC50             µM          20
2  N#Cc1ccc(Nc2nccc(Nc3c(F)cc4cc(C#N)ccc4c3F)n2)cc1      CC50             µM         4.8
3  Cc1cc2cc(C#N)ccc2c(C)c1Nc1ncnc(Nc2ccc(C#N)cc2)n1      CC50             µM         9.5
4  Cc1c(Nc2nc(Nc3ccc(C#N)cc3)nc(OCCCN3CCOCC3)n2)ccn2cc(C#N)cc12      CC50             µM          10
5  Cc1cn2cc(C#N)cc2c(C)c1Nc1ncnc(Nc2ccc(C#N)cc2)n1      CC50             µM          16

Below: the item to evaluate.
Task item: Using MT2 as the test system, report measured CC50 of Cc1cc2cc(C#N)ccc2c(C)c1Nc1nc(Cl)nc(Nc2ccc(C#N)cc2)n1 .
Reply: 7.5
